experiment-notes: Nrf2 qHTS screen for inhibitors: Validation (AID 493153)
cond: A549 ARE-Fluc reporter, 18-24 h; measured here: cytotoxicity max response
Results filed as inconclusive are left out.
assay-endpoint: viability change (%)
Your answer should be a plain number; it is taken to be in %.

What does the record list as viability change for COc1cc2c(cc1OC)-c1cc(=Nc3c(C)cc(C)cc3C)n(C)c(=O)n1CC2 ? -6.02

What does the record list as viability change for COC(=O)[C@@H](N)Cc1ccc(O)c(O)c1 ? -11.8

What does the record list as viability change for CCOC(=O)C1=C(C)NC(C)=C(C(=O)OC)C1c1cccc(Cl)c1Cl (stereo not given) ? -3.98

What does the record list as viability change for CC[N+](C)(C)c1cccc(O)c1 ? 0.744

What does the record list as viability change for CCN(CC)CCCN(c1ccccc1)C1Cc2ccccc2C1 ? -6.42

What does the record list as viability change for COc1ccc(CCN(C)CCCC(C#N)(c2cc(OC)c(OC)c(OC)c2)C(C)C)cc1OC (stereo not given) ? -13.6

What does the record list as viability change for CC(C)(C)NCC(O)c1cc(O)cc(O)c1 (stereo not given) ? 2.92

* * *

System: CP297
experiment-notes: qHTS profiling for inhibitors of Plasmodium falciparum proliferation (AID 504749); further: nearly all actives have a fitted effect of over 60% in size
cond: P. falciparum in erythrocytes, SYBR Green DNA, 72 h; series mostly up to 28.7 µM
Records with an inconclusive call do not appear. The source made the active and inactive calls. Calls follow the shape of the dose curve; as a rule, active = well fitted inhibition curve with a large enough effect; inconclusive = small, poorly fitted or top-dose-only effect; inactive = flat fitted curve, though single readings scatter.
Would you mind answering with one of these outcomes? active, inactive

Some solved entries appear below for comparison.
{"molecule": "NC(=O)c1ncn([C@@H]2O[C@H](CO)[C@@H](O)[C@H]2O)c1O", "measured-on": "CP297", "assigned-category": "inactive"}
{"molecule": "C[N+](C)(C)CCCCCCCCCC[N+](C)(C)C", "measured-on": "CP297", "assigned-category": "active"}
{"molecule": "CCn1ccnc1CC1COc2ccccc2O1 (stereo not drawn)", "measured-on": "CP297", "assigned-category": "inactive"}

Dear all, I need the recorded test outcome for O=C(O)CCCCCCCC(=O)O , thank you. inactive

Dear all, I need the recorded test outcome for CN1CCN(C2=Nc3ccccc3Oc3ccc(Cl)cc32)CC1 , thank you. inactive

Dear all, I need the recorded test outcome for CCCCNC(=O)NS(=O)(=O)c1ccc(C)cc1 , thank you. inactive

Dear all, I need the recorded test outcome for O=C(O)CN(CCOCCOCCN(CC(=O)O)CC(=O)O)CC(=O)O , thank you. inactive

Dear all, I need the recorded test outcome for CC1=NS(=O)(=O)c2cc(Cl)ccc2N1 , thank you. inactive

Dear all, I need the recorded test outcome for CC(N=C(NC#N)Nc1ccncc1)C(C)(C)C (stereo not drawn) , thank you. inactive

Dear all, I need the recorded test outcome for Cc1cc(C)c(/C=C2\C(=O)Nc3ccccc32)[nH]1 , thank you. inactive

Dear all, I need the recorded test outcome for CCN1CCC[C@H]1CNC(=O)c1c(O)c(Cl)cc(Cl)c1OC , thank you. inactive

Dear all, I need the recorded test outcome for NC(=O)N1c2ccccc2C=Cc2ccccc21 , thank you. inactive

Dear all, I need the recorded test outcome for CCN(Cc1ccncc1)C(=O)C(CO)c1ccccc1 (stereo not drawn) , thank you. inactive

* * *

experiment-notes: Quantitative high throughput screen for delayed death inhibitors of the malarial parasite plastid, 48 hour incubation (AID 488752); further: nearly all actives have a fitted effect of over 65% in size
cond: Plasmodium falciparum growth; series mostly up to 28.7 µM
Results filed as inconclusive are left out. The source made the active and inactive calls. Calls come from the whole dose curve; as a rule, active = well fitted inhibition curve with a large enough effect; inconclusive = small, poorly fitted or top-dose-only effect, or effect the other way; inactive = flat fitted curve, though single readings scatter.
Would you mind answering with one of these outcomes? true for active, false for inactive

{"molecule": "CN(C)CCN(Cc1cccs1)c1ccccn1", "assigned-category": "false"}
{"molecule": "CN(C(=O)CCCOc1ccc2[nH]c(=O)ccc2c1)C1CCCCC1", "assigned-category": "false"}
{"molecule": "CN(C)C/C=C(/c1ccc(Br)cc1)c1cccnc1", "assigned-category": "true"}

Dear all, I need the recorded test outcome for CCN(CC)CC(=O)Nc1c(C)cccc1C , thank you. false

Dear all, I need the recorded test outcome for O=C(CCNNC(=O)c1ccncc1)NCc1ccccc1 , thank you. false

Dear all, I need the recorded test outcome for CNCCC(Oc1ccccc1OC)c1ccccc1 (stereo unspecified) , thank you. false
